Recorded values, source patent US5910478A.

Molecular target: T1, recombinant transforming ras p21 (human)
T1 chain: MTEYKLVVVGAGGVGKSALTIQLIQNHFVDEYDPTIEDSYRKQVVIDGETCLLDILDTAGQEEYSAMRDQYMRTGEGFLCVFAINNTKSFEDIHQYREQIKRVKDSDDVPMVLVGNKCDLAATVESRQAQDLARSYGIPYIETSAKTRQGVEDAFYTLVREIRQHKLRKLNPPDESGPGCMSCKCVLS
Test: cell-based or functional assay
Metric Name: Present Inhibition of ras-Induced Maturation (percent)

• KCDLA [peptide of SEQ ID NO:2 (residues 117 to 121 of SEQ ID NO:5)] = 38
• KRV [Lys-Arg-Val] = 22
• CDLAART [peptide of SEQ ID NO:9 (residues 118 to 124 of SEQ ID NO:5)] = 65
• TIEDSYRKQVVID [peptide of SEQ ID NO:6 (residues 35 through 47 of SEQ ID NO:5)] = 28
• IKRVKD [peptide of SEQ ID NO:1 (residues 100 to 105 of SEQ ID NO:5)] = 76

1: YREQIKRVKDSDDVP [peptide of SEQ ID NO:7 (residues 96 to 110 of SEQ ID NO:5)]
2: DLAA [peptide of SEQ ID NO:4 (residues 119 to 122 of SEQ ID NO:5)]
3: GNKCDLAARTVE [peptide of SEQ ID NO:8 (residues 115 to 126 of SEQ ID NO:5)]
4: VVI [Val-Val-Ile]
Could you please sort these 4 entries by Present Inhibition of ras-Induced Maturation from high to low? Labels, ranked as asked. 3, 1, 4, 2
(3: 92 percent, 1: 56 percent, 4: 34 percent, 2: 22 percent)
